Catalogue of variants with associated protein stability index
B1: FBXO3 (parent)
chain: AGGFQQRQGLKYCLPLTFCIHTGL

Variants of: B1
Assay: protein stability index of a GFP-peptide fusion (GPS, HEK-293T) (PSI 1-6); higher = more stable;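 further: lentivirally expressed fusions sorted by FACS into six bins by GFP to DsRed ratio, PSI derived from sequencing read proportions per bin multiplied by bin number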
Conditions: c terminus: a fixed tail appended
In your answer, state the number alone without any accompanying words.

Below: 3 variants and their reported protein stability index.
AGGFQQRQGLKYCLPLTGCIHTGL [F18G]    1.1
AGGFQQRQGLKYGLPLTFCIHTGL [C13G]    2.48
AGGFQQRQGLKYCLPLTFCIHTGQ [L24Q]    1.96

IN: May I ask what protein stability index has been recorded for YGGFQQRQGLKYCLPLTFCIHTGL [A1Y] ?
OUT: 3.08

All figures here come from the supplement of paper PMC10567573.
